Test system: HCT-15 colon
Assay: NCI-60 one-dose screen, 48 h
Conditions: 10 µM unless noted
Method: Growth inhibition of the HCT-15 human tumor cell line is measured as a screen for anti-cancer activity. Cells are grown in 96 well plates and exposed to the test compound for 48 hours. Compounds are tested at a single concentration, which is 10^-5 M for most compounds. The reported endpoint is percent growth (GI% or GIPRCNT), where numbers from 0 - 100% represent growth inhibition, and numbers from -100% - 0 represent cell death. For example, a value of 40 represents 60% growth inhibition. […]
Compounds without any hit were thinned out: in the full panel of roughly 83,000, 20% have a hit. Calls of active or inactive are those of the source. The calls were made as follows: active = growth percent below 10; inactive = the rest.
Could you please pick one outcome from this set? class 1 = active, class 0 = inactive

Qu. Please state the recorded outcome for this compound: CN(C)C(=O)OCc1ccc2c(Cl)cc(Cl)c(O)c2n1
Ans. class 0

Qu. Could you kindly confirm the outcome this assay logged for CN(C)CCOc1ccc(/C(=C(/CCCCCCCCCC[P+](c2ccccc2)(c2ccccc2)c2ccccc2)c2ccccc2)c2ccccc2)cc1 ?
Ans. class 1

Qu. For Cc1nc2sc(C(=O)Nc3ccccc3)c(N)c2cc1C(O)c1ccccc1 (stereo not given) , which call appears in the assay record?
Ans. class 1

Qu. Call for entry NC(=N\N=C/c1ccc(Cl)cc1Cl)/C(N)=N\N=C/c1ccc(Cl)cc1Cl :
Ans. class 0

Qu. Record request — test call for N/C(=N\c1nc2ccccc2s1)NC(=O)Nc1ccccc1
Ans. class 0

Qu. Look up the recorded call for C=C(C)Cn1c(SCC(=O)c2cccs2)nc2sc3c(c2c1=O)CCCC3 in this test.
Ans. class 0

Qu. Assay outcome for O=C(Nc1ccc(Cl)cc1)C1=NCCCCN1 : what was it?
Ans. class 0

Qu. Name the outcome recorded for COc1cc(OC)cc(C(=O)Nc2cnc(Nc3ccc(N4CCOCC4)nc3)nc2Oc2ccc(C(F)(F)F)cc2)c1 in the assay.
Ans. class 0

Qu. What did the test return for O=C1c2c(c3c4cc(F)ccc4oc3c3[nH]c4ccccc4c23)C(=O)N1O ?
Ans. class 0

Qu. Answer briefly: the call reported for COc1cc(/C=C/C(=O)c2ccc(-n3cc(CN4CCN(c5cc6c(cc5F)c(=O)c(C(=O)O)cn6C5CC5)CC4)nn3)cc2)cc(OC)c1OC in this assay.
Ans. class 0

====

Kindly supply the reported growth values for the records listed here.
Tested on: NCI-H23 lung
Experiment: NCI-60 one-dose screen, 48 h (100 = growth as untreated, 0 = no growth, -100 = all killed)
Details: 10 µM unless noted
Experimental: Growth inhibition of the NCI-H23 human Non-Small Cell Lung tumor cell line is measured as a screen for anti-cancer activity. Cells are grown in 96 well plates and exposed to the test compound for 48 hours. Compounds are tested at a single concentration, which is 10^-5 M for most compounds. The reported endpoint is percent growth (GI% or GIPRCNT), where numbers from 0 - 100% represent growth inhibition, and numbers from -100% - 0 represent cell death. […]
The panel holds about 83,000 compounds, 20% with a hit somewhere; the sample as a whole holds those more often.
Your answer should be a plain number; it is taken to be in %.

Qu. growth lookup needed for O=C(COc1ccc(/C=C2\Oc3ccccc3C2=O)cc1)Nc1nccs1 , thanks.
Ans. 87.6

Qu. Name the recorded growth for Brc1ccc(-c2nn(-c3ccccc3)cc2-c2nn[nH]n2)s1 .
Ans. 92.7

Qu. State the recorded growth for this entry: O=c1ccc2c(ccc3ncccc32)o1
Ans. 106

Qu. Returns the measured growth for the input molecule. Input: CC(C)CCc1nc2ccc(NCc3ccc(OCCN4CCC(C)CC4)cc3)cc2[nH]1
Ans. 94.9

Qu. Reported growth, molecule CCN(CC)CCN1C(=O)c2c(c(C)c3c(oc4cc(OC)ccc43)c2C)C1=O : ____
Ans. 95.9

Qu. Given the entry CCN(CC)CCCNc1cc(OC)cc2cccnc12 , report its measured growth.
Ans. 99.3
